- Target system: h-GABA-A α2β2γ1 (Homo sapiens (Human), UniProt P47869+Q8N1C3)
- Assay explanation: Two-electrode voltage clamp electrophysiology in Xenopus oocytes expressing GABAA receptors
- Format: cell-based
- Assay context: % modulation of GABA EC20 = 100*(Fold increase−1), compound at about 30-fold its Ki α2β2γ1
Reported Efficacy (GABA) % values follow for various compounds
Kindly provide the numeric value in % only, without the unit symbol.

Compound	Target system	Efficacy (GABA) %, %
Cc1nc2n(n1)-c1sc3c(c1C(c1c(F)cccc1F)=N[C@H]2C)COCCC3	h-GABA-A α2β2γ1 (Homo sapiens (Human), UniProt P47869+Q8N1C3)	73
Cc1nnc2n1-c1sc3c(c1C(c1c(F)cccc1Cl)=N[C@H]2C)COCCC3	h-GABA-A α2β2γ1 (Homo sapiens (Human), UniProt P47869+Q8N1C3)	165
C[C@@H]1N=C(c2c(F)cccc2F)c2c(sc3c2COCCC3)-n2nc(C(=O)NCC3(O)CC3)nc21	h-GABA-A α2β2γ1 (Homo sapiens (Human), UniProt P47869+Q8N1C3)	179

Look at this compound and give its reported Efficacy (GABA) %. Cc1nnc2n1-c1sc3c(c1C(c1c(F)cccc1F)=N[C@H]2C)CCCC(O)C3 (mixture of isomers) 80

All figures here come from patent US20240294543A1.
